target: human F508del-CFTR (Homo sapiens, UniProt P13569, DEL508-508); test: F508del-CFTR cell surface expression (corrector activity), DiscoveRx ß-galactosidase complementation chemiluminescence assay in recombinant U2OS cell line; conditions: U2OS, in relation to the Emax of the corrector lumacaftor (=100%); U2OS cell line, 16h compound incubation; arithmetic mean values
Sequence (P13569 with tags, fused parts or gaps DEL508-508): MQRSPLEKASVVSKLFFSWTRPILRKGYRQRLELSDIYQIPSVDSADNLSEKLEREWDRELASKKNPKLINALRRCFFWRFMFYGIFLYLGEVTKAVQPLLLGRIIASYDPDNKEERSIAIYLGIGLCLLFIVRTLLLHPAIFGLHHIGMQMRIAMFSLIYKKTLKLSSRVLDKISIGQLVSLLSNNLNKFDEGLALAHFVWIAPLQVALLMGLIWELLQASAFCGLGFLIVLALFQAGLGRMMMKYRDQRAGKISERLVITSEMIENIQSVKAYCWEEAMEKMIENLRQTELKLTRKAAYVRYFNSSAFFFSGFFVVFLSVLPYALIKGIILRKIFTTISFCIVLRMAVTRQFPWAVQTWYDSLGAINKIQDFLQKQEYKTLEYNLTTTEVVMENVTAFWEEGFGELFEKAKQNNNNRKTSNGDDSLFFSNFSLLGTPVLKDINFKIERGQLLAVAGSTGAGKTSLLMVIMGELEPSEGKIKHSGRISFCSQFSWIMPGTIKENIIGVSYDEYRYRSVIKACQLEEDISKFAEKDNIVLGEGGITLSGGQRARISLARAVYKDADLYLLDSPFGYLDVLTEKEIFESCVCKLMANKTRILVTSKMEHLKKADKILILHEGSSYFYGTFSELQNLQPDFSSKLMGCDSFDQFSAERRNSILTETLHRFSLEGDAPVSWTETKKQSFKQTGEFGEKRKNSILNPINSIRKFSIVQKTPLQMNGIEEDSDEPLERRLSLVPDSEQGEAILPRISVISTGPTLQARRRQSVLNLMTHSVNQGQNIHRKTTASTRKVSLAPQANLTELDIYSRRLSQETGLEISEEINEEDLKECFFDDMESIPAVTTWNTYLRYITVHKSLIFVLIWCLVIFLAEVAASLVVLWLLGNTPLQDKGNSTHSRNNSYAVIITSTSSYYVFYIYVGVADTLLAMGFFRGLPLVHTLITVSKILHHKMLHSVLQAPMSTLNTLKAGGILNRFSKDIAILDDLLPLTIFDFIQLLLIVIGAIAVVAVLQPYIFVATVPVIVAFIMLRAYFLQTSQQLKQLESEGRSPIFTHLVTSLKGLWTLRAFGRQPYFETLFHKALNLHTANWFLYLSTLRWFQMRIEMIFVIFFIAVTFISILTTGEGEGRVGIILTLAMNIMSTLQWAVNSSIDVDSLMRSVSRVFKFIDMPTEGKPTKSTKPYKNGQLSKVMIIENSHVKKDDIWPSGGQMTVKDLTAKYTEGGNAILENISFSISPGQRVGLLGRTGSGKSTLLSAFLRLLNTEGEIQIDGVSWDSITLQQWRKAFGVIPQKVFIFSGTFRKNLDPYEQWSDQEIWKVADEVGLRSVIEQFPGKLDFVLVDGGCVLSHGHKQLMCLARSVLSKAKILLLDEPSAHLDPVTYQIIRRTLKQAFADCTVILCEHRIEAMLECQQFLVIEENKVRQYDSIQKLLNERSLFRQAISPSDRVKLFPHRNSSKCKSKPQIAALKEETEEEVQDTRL
Entries annotated with measured Emax

Example cases with answers are listed next.
Reported Emax of COc1cccc2c1C(=O)N[C@H](C(=O)NCCc1ccc(N(C)C)cc1)CC(=O)N(C)[C@@H](CC(C)C)C(=O)N(CCC1CCCCC1)CC(=O)N[C@H](Cc1ccccc1)CO2 [Example 203] : 134%

Reported Emax of Cc1cccc2c1C(=O)N[C@H](C(=O)NCCc1ccc3c(c1)OCO3)CC(=O)N(C)[C@@H](CC(C)C)C(=O)N(C)CC(=O)N[C@H](Cc1ccccc1)CO2 [Example 235] : 117%

Reported Emax of COc1cccc(CCNC(=O)[C@@H]2CC(=O)N(C)[C@@H](CC(C)C)C(=O)N(CC[C@H]3CCCCO3)CC(=O)N[C@H](Cc3ccccc3)COc3ccc4ccccc4c3C(=O)N2)c1 (racemic) [Example 297] : 225%

Reported Emax of Cc1csc(CCNC(=O)[C@@H]2CC(=O)N(C)[C@@H](CC(C)C)C(=O)N3CCCC[C@@H]3C(=O)N[C@H](Cc3ccccc3)COc3ccc4ncn(C)c4c3C(=O)N2)n1 (racemic) [Example 23] : 115%

Reported Emax of COc1cccc(CCNC(=O)[C@@H]2CC(=O)N(C)[C@@H](CC(C)C)C(=O)N(C)C3(CC3)C(=O)N[C@H](Cc3ccccc3)COc3cnc4ccc(F)cc4c3C(=O)N2)c1 [Example 131] : 320%

Reported Emax of COc1cccc(CCNC(=O)[C@@H]2CC(=O)N(C)[C@@H](CC(C)C)C(=O)N(CCC3CCCCC3)CC(=O)N[C@H](Cc3ccccc3)COc3cnc4c(F)cccc4c3C(=O)N2)c1 [Example 383] : 317%

Reported Emax of COc1cccc2c1C(=O)N[C@H](C(=O)NCCc1ccncn1)CC(=O)N(C)[C@@H](CC(C)C)C(=O)N(CCC1CCCCC1)CC(=O)N[C@H](Cc1ccccc1)CO2 [Example 19] : 125%

Reported Emax of COc1cc(CCNC(=O)[C@@H]2CC(=O)N(C)[C@@H](CC(C)C)C(=O)N3CCCC[C@@H]3C(=O)N[C@H](Cc3ccccc3)COc3ccc4oc(C)nc4c3C(=O)N2)cc(OC)c1 [Example 368] : 147%

Next:
Reported Emax of CC(C)C[C@H]1C(=O)N(CCC2CCCCC2)CC(=O)N[C@H](Cc2ccccc2)COc2ccc3c(c2C(=O)N[C@H](C(=O)NCCc2ccc4c(c2)OCO4)CC(=O)N1C)OCO3 [Example 345] : 268%

Reported Emax of CC(C)C[C@H]1C(=O)N(CCC2CCCCC2)CC(=O)N[C@H](Cc2ccccc2)COc2ccncc2C(=O)N[C@H](C(=O)NCCc2ccc3c(c2)OCC3)CC(=O)N1C [Example 262] : 231%

* * *

biological target: human F508del-CFTR (Homo sapiens, UniProt P13569, DEL508-508); assay: F508del-CFTR cell surface expression (corrector activity), DiscoveRx ß-galactosidase complementation chemiluminescence assay in recombinant U2OS cell line; settings: EC50, F508del-CFTR cell surface expression, U2OS cells, 16h compound incubation; geomean values
READOUT: EC50

Reported EC50 of Cc1cc(CCNC(=O)[C@@H]2CC(=O)N(C)[C@@H](CC(C)C)C(=O)N(C)C3(Cc4ccccc4C3)C(=O)N[C@H](Cc3ccccc3)COc3cnc4ccccc4c3C(=O)N2)on1 [Example 495] : 296 nM

Reported EC50 of COc1nccc2c1C(=O)N[C@H](C(=O)NCCc1cc(C)no1)CC(=O)N(C)[C@@H](CC(C)C)C(=O)N1Cc3ccccc3C[C@@H]1C(=O)N[C@H](Cc1ccccc1)CO2 [Example 678] : 355 nM

Reported EC50 of COc1nccc2c1C(=O)N[C@H](C(=O)NCCc1noc(C3CC3)n1)CC(=O)N(C)[C@@H](CC(C)C)C(=O)N(C)[C@H](c1ccccc1)C(=O)N[C@H](Cc1ccccc1)CO2 [Example 681] : 447 nM

Reported EC50 of CC(C)C[C@H]1C(=O)N2CCN(C3CC3)C[C@H]2C(=O)N[C@H](Cc2ccccc2)COc2cnc3ccccc3c2C(=O)N[C@H](C(=O)NCCc2cccc(OC(F)F)c2)CC(=O)N1C [Example 399] : 506 nM

Now for a further compound.
Reported EC50 of CC(C)C[C@H]1C(=O)N2CCCC[C@@H]2C(=O)N[C@H](Cc2ccccc2)COc2cnc3ccc(F)cc3c2C(=O)N[C@H](C(=O)NCCc2cnn(C3CC3)n2)CC(=O)N1C [Example 665] : 119 nM

* * *

target: human F508del-CFTR (Homo sapiens, UniProt P13569, DEL508-508); experiment: F508del-CFTR cell surface expression (corrector activity), DiscoveRx ß-galactosidase complementation chemiluminescence assay in recombinant U2OS cell line; details: U2OS, in relation to the Emax of the corrector lumacaftor (=100%); U2OS cells, 16h compound incubation; arithmetic mean
Entries annotated with measured Emax
Value expressed in %; do not type the unit.

Example cases with answers are listed next.
Reported Emax of COc1noc(CCNC(=O)[C@@H]2CC(=O)N(C)[C@@H](CC(C)C)C(=O)N(C)[C@@H](CC(F)(F)F)C(=O)N[C@H](Cc3ccccc3)COc3ccc4ncc(F)cc4c3C(=O)N2)n1 : 298

Reported Emax of COCCn1cc(CCNC(=O)[C@@H]2CC(=O)N(C)[C@@H](CC(C)C)C(=O)N(C)[C@H](Cc3nc(C(F)(F)F)no3)C(=O)N[C@H](Cc3ccccc3)COc3cc(C)nc(OC)c3C(=O)N2)cn1 : 453

Reported Emax of COc1cc(OCC[C@@H]2C(=O)N[C@H](Cc3ccccc3)COc3cc(C)nc(OC)c3C(=O)N[C@H](C(=O)NCCc3cc(OC)no3)CC(=O)N(C)[C@@H](CC(C)C)C(=O)N2C)ccn1 : 457

Reported Emax of COc1cc(CCNC(=O)[C@@H]2CC(=O)N(C)[C@@H](CC(C)C)C(=O)N(C)[C@@H](Cc3nc(-c4ccc(F)cn4)no3)C(=O)N[C@H](Cc3ccccc3)COc3cnc4ccc(F)cc4c3C(=O)N2)on1 : 286

Now for a further molecule.
Reported Emax of COc1cccc(CCNC(=O)[C@@H]2CC(=O)N(C)[C@@H](CC(C)C)C(=O)N(C)[C@H](C(C)(C)C)C(=O)N[C@H](Cc3ccccc3)COc3cc(C)nc(OC)c3C(=O)N2)c1 : 356

* * *

molecular target: human F508del-CFTR (Homo sapiens, UniProt P13569, DEL508-508); assay: F508del-CFTR cell surface expression (corrector activity), DiscoveRx ß-galactosidase complementation chemiluminescence assay in recombinant U2OS cell line; settings: U2OS, in relation to Emax of corrector lumacaftor (=100%); arithmetic mean values;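 further: U2OS cells co-expressing ProLink-tagged F508del-CFTR and a membrane-anchored enzyme acceptor, where more surface CFTR restores β-galactosidase activity measured by chemiluminescence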
Binarize Emax at 200%; below is class 1, at or above is class 0.

Below are worked cases with known answers.
Query string: Below 200% on Emax? Entry CCOc1cccc(CCNC(=O)[C@@H]2CC(=O)N(C)[C@@H](CC(C)C)C(=O)N3CCN(C4CC4)C[C@@H]3C(=O)N[C@H](Cc3ccccc3)COc3ccc4nc(C)oc4c3C(=O)N2)c1
Result string: class 0

Query string: Below 200% on Emax? Entry Cc1cc(CCNC(=O)[C@@H]2CC(=O)N(C)[C@@H](CC3CCCC3)C(=O)N3CCOC[C@@H]3C(=O)N[C@H](Cc3ccccc3)COc3ccc4nc(C)oc4c3C(=O)N2)on1
Result string: class 1

Query string: Below 200% on Emax? Entry COc1cccc(CCNC(=O)[C@@H]2CC(=O)N(C)[C@@H](CC(C)C)C(=O)N3CCN(S(=O)(=O)CCN(C)C)C[C@@H]3C(=O)N[C@H](Cc3ccccc3)COc3ccc4ccccc4c3C(=O)N2)c1
Result string: class 1

Query string: Below 200% on Emax? Entry COc1cc(CCNC(=O)[C@@H]2CC(=O)N(C)[C@@H](CC(C)C)C(=O)N3CCCC[C@H]3C(=O)N[C@H](Cc3ccccc3)COc3ccc4ncc(F)cc4c3C(=O)N2)on1
Result string: class 0

Query string: Below 200% on Emax? Entry [2H]C([2H])([2H])Oc1nc(C)cc2c1C(=O)N[C@H](C(=O)NCCc1cc(C3CC3)on1)CC(=O)N(C)[C@@H](CC(C)C)C(=O)N1CCCC[C@@H]1C(=O)N[C@H](Cc1ccccc1)CO2
Result string: class 0

Query string: Below 200% on Emax? Entry COc1cc(CCNC(=O)[C@@H]2CC(=O)N(C)[C@@H](CC(C)C)C(=O)N(C)[C@H](C)C(=O)N[C@H](Cc3ccccc3)COc3cc(C)nc(OC)c3C(=O)N2)on1
Result string: class 0

Query string: Below 200% on Emax? Entry COc1cccc(CCNC(=O)[C@@H]2CC(=O)N(C)[C@@H](CC(C)C)C(=O)N3CCN([S@](=O)(=NC(=O)OC(C)(C)C)c4ccccc4)C[C@@H]3C(=O)N[C@H](Cc3ccccc3)COc3ccc4ccccc4c3C(=O)N2)c1
Result string: class 0

Query string: Below 200% on Emax? Entry CC(C)C[C@H]1C(=O)N2CCCC[C@@H]2C(=O)N[C@H](Cc2ccccc2)COc2ccncc2C(=O)N[C@H](C(=O)NCCc2ccc3c(c2)OCC3)CC(=O)N1C
Result string: class 1

Query string: Below 200% on Emax? Entry COc1cccc(CCNC(=O)[C@@H]2CC(=O)N(C)[C@@H](CC(C)C)C(=O)N3CCCC[C@@H]3C(=O)N[C@H](Cc3ccccc3)COc3ccc4c(c3C(=O)N2)OCC4)c1
Result string: class 1

With those in mind, consider the next compound.
Query string: Below 200% on Emax? Entry COC(=O)N1CCN2C(=O)[C@H](CC(C)C)N(C)C(=O)C[C@@H](C(=O)NCCc3cccc(OC)c3)NC(=O)c3c(ccc4ccccc34)OC[C@@H](Cc3ccccc3)NC(=O)[C@H]2C1
Result string: class 0
